Record form. Attribute: Cell kill IC50, SKBR3. Fill in for each entry.
Molecular target: T1, human nectin-4 protein expressed on the surface of cells (human, UniProt Q96NY8 32-510)
T1 sequence: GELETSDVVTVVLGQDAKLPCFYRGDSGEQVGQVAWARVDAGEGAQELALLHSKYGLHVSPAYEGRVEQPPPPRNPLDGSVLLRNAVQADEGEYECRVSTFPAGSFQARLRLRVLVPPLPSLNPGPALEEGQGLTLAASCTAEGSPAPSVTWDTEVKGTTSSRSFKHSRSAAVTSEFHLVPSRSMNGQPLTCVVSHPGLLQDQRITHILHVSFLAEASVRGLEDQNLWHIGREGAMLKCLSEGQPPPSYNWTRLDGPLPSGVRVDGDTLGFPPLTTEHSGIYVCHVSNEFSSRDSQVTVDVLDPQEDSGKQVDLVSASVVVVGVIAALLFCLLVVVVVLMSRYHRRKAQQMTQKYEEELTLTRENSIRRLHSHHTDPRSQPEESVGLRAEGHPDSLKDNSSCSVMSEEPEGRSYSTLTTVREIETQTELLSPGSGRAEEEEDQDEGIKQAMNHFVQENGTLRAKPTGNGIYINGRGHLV
Assay: cell-based or functional assay
Answers are plain numbers, in nM.

Nectin-4 5D9 VH2/VL3 (antibody, V domains shown, Humanized; also called 5D9 VH variant 2 / 5D9 VL variant 3) VH: QVQLQESGPGLVKPSETLSLTCTVSGFSITNYGVHWIRQPPGKGLEWLGVIWSGGSTDYNASLVSRVTISRDTSKSQFFLKLNSVQADDTAVYYCARSGKWYYFDYWGQGTTVTVSS VL: DIQMTQSPSSLSASVGDRVTITCRASQSIYSNLAWYQQKPGKAPKLLVYAATNLASGVPSRFSGSGSGTDFTLTISSLQPEDFATYYCQHFWGTPTFGGGTKVEIK    15.9

// switching to the query binder
query: Please report the recorded Cell kill IC50, SKBR3 for Nectin-4 5D9 VH5/VL3 (antibody, V domains shown, Humanized; also called 5D9 VH variant 5 / 5D9 VL variant 3) VH: QVQLQESGPGLVKPSETLSLTCTVSGGSLTNYGVHWVRQPPGKGLEWIGVIWSGGSTNYNPSLKSRVTISRDTSKNQVSLKLSSVTAADTAVYYCARSGKWYYFDYWGQGTLVTVSS VL: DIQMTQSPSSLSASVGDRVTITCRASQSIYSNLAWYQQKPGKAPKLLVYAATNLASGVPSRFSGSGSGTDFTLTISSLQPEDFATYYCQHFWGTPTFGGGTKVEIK .
result: 9.86
